Value source: patent US11352349B2

test system: S. aureus ATCC 29213; assay: MIC by broth microdilution (CLSI), quality control strain S. aureus ATCC 29213; format: cell-based, Staphylococcus aureus; settings: Staphylococcus aureus, ATCC29213, S. aureus ATCC 29213; multiple values when multiple MIC assays were conducted
measured.metric: MIC (µg/mL)
Answer format: numeric, µg/mL implied, no suffix.

As a guide, the following entries are already answered.
Indicate the recorded MIC value for this molecule: COc1ccc2nccc(CC[C@H]3OC[C@H](NCc4ccc(F)c(F)c4)CO3)c2c1 [AB-0024]
64

Check the records and state MIC for COc1ccc2ncc(F)c(C(O)C[C@H]3OC[C@H](NCc4cc5c(cn4)OCCO5)CO3)c2c1 (some centres unmarked) [AB-0046]
0.5

Supply reported MIC belonging to this molecule: COc1ccc2nccc(CC[C@H]3OC[C@H](NCCc4ccccc4)CO3)c2c1 [AB-0045]
64

Answer with the recorded MIC of COc1ccc2nccc(CC[C@H]3OC[C@H](NCc4cccc(Cl)c4)CO3)c2c1 [AB-0037] only.
32

Others:
Item COc1ccc2nccc(CC[C@H]3OC[C@H](NCc4ccc5c(n4)NC(=O)CS5)CO3)c2c1 [AB-0021] : provide MIC
0.5

Output MIC of COc1ccc2nccc(CC[C@H]3OC[C@H](NCc4cc(F)cc(F)c4)CO3)c2c1 [AB-0029]
16

Look up and report measured MIC for this entry: COc1ccc2nccc(CC[C@H]3OC[C@H](NCc4ccc(C(F)(F)F)cc4)CO3)c2c1 [AB-0071]
1

Return MIC (reported value) for this molecule: COc1ccc2ncc(=O)n(CC(O)[C@H]3OC[C@H](NCc4cc5c(cn4)OCCO5)CO3)c2c1 (some centres unmarked) [AB-0077]
1

Please look at this molecule and report its MIC: COc1ccc2nccc(CC[C@H]3OC[C@H](NCc4ccc(Cl)c(F)c4)CO3)c2c1 [AB-0030]
2

Identify measured MIC corresponding to COc1ccc2nccc(CC[C@H]3OC[C@H](NCc4ccc(F)c(Cl)c4)CO3)c2c1 [AB-0023]
8

Identify measured MIC associated with COc1ccc2nccc(CC[C@H]3OC[C@H](NCc4ccc5c(c4)OC(F)(F)O5)CO3)c2c1 [AB-0080]
1

Given COc1ccc2nccc(CC[C@H]3OC[C@H](NCc4ccc5c(c4)NC(=O)CO5)CO3)c2c1 [AB-0057] , respond with its MIC.
1

* * *

test system: S. aureus ATCC 29213; assay: MIC by broth microdilution (CLSI), quality control strain S. aureus ATCC 29213; format: cell-based, Staphylococcus aureus; conditions: Staphylococcus aureus, ATCC29213, S. aureus ATCC 29213; multiple values when multiple MIC assays were conducted
Here, each record is paired with measured log10 of MIC data.
Would you kindly interpret these values as log10 of MIC expressed in µg/mL?

Examples from the recorded data:
Tell me log10 of MIC reported for COc1ccc2ncc(F)c(CC[C@H]3OC[C@H](NCc4cc5c(cn4)OCCO5)CO3)c2n1
-0.90

Please indicate log10 of MIC recorded for COc1ccc2nccc(CC[C@H]3OC[C@H](NCc4cccc(F)c4)CO3)c2c1
1.51

Provide one value: measured log10 of MIC of COc1ccc2nccc(CC[C@H]3OC[C@H](NCc4ccc(C(C)(C)C)cc4)CO3)c2c1
0.30

Answer with the recorded log10 of MIC for the molecule listed here: COc1ccc2nccc(CC[C@H]3OC[C@H](NC(=O)c4ccc5c(c4)OCCO5)CO3)c2c1
0.90

Identify the reported log10 of MIC for the following entry. COc1ccc2ncc(=O)n(CC[C@H]3OC[C@H](NCc4cc5c(cn4)OCCC5)CO3)c2c1
0.90

Okay, now this molecule:
Dear colleague, please send me the reported log10 of MIC for COc1ccc2nccc(CC[C@H]3OC[C@H](NCc4cccc(C)c4)CO3)c2c1 when you can.
1.20
